- Test system: C33A
- test: Primary qHTS to identify gynecologic anti-cancer compounds using libraries of approved drugs and bioactive compounds (AID 1345084); note: % is set by controls: 0 for no effect and ±100 for the full control effect; nearly all actives have a fitted effect of over 55% in size
- run-conditions: Gynecologic cancer cell panel viability, ATPlite luminescence, 48 h; series mostly up to 57.5 µM
Results filed as inconclusive are left out. Calls of active or inactive are those of the source. Calls come from the whole dose curve; as a rule, active = well fitted cell-killing curve with a large enough effect; inconclusive = small, poorly fitted or top-dose-only effect, or effect the other way; inactive = flat fitted curve, though single readings scatter.
observation-type: activity change, negative = cytotoxicity

INSERT INTO measurements (molecule, observation_type, experimental_result) VALUES
  ('C=C1CCC2C(C)(C)C(O)CCC2(C)C1CCC(C)CCOC(=O)CCC(=O)O (centres undefined)', 'activity change, negative = cytotoxicity', 'inactive'),
  ('CC(=O)OC1C(O)CC(O[C@@H]2O[C@H](CO)[C@@H](O)[C@H](O)[C@H]2O)C2CCC3C(=O)OC(c4ccoc4)CC3(C)C21 (some centres undefined)', 'activity change, negative = cytotoxicity', 'inactive'),
  ('COc1cc(/C=C/C(=O)OC(C)(C)C(OC2OC(CO)C(O)C(O)C2O)C(=O)OCc2ccc(OC3OC(CO)C(O)C(O)C3O)cc2)ccc1O (centres undefined)', 'activity change, negative = cytotoxicity', 'inactive'),
  ('CCC(CCO[C@@H]1O[C@H](CO[C@H]2OC[C@](O)(CO)[C@H]2O)[C@@H](O)[C@H](O)[C@H]1O)C(C)(C)O (some centres undefined)', 'activity change, negative = cytotoxicity', 'inactive');

###

- Tested on: HEK293T
- test: qHTS assay to identify novel small-molecules to repurpose for Merkel cell carcinoma treatment (AID 1296009); note: nearly all actives have a fitted effect of over 60% in size
- run-conditions: MCC and control cell lines, CellTiter-Glo viability, 72 h; series mostly up to 44.8 µM
Inconclusive results are not listed. The source made the active and inactive calls. The call rests on the fitted dose curve; in most records, active means well fitted inhibition curve with a large enough effect; inconclusive means small, poorly fitted or top-dose-only effect; inactive means flat fitted curve, though single readings scatter.
observation-type: outcome

INSERT INTO results (compound, observation_type, experimental_result) VALUES
  ('CNC(=O)Nc1ccc(OC)c(NC(=O)NC(=O)c2cc(F)c(F)cc2Cl)c1', 'outcome', 'inactive'),
  ('C1CCN2CC3C[C@@H](CN4CCCC[C@@H]34)[C@H]2C1', 'outcome', 'inactive'),
  ('CCOC(=O)c1ccnc(CNCC(=O)N(CC)CCN(C)C)c1', 'outcome', 'inactive'),
  ('C[C@@H]1O[C@@H](O[C@H]2[C@H](O[C@H]3[C@H](O[C@H]4CC[C@@]5(C=O)C(CC[C@]6(C)C5CC=C5C7CC(C)(C)C[C@@H](O)[C@]7(C)CC[C@]56C)C4(C)C)O[C@H](C(=O)O)[C@@H](O)[C@@H]3O)OC[C@@H](O)[C@@H]2O)[C@H](O)[C@H](O)[C@H]1O (stereo partly specified)', 'outcome', 'inactive [at 9.27 µM]'),
  ('C/C=C(\C)C(=O)O[C@@H](C)[C@H]1CC[C@]2(O)C3CCC4C[C@@H](OC5CC(OC)C(OC6CC(OC)C(OC7CC(OC)C(OC8OC(C)C(OC9OC(CO)C(O)C(O)C9O)C(OC)C8O)C(C)O7)C(C)O6)C(C)O5)CC[C@]4(C)C3[C@H](O)[C@@H](O)[C@]12C (stereo partly specified)', 'outcome', 'inactive [at 9.27 µM]'),
  ('C[C@@H]1CC[C@]2(C)C3(C)CC[C@@]2(OC3=O)[C@@]12C[C@H](c1ccoc1)OC2=O', 'outcome', 'inactive');

###

- System: Es-2
- test: Primary qHTS to identify gynecologic anti-cancer compounds using libraries of approved drugs and bioactive compounds (AID 1345084); note: % is set by controls: 0 for no effect and ±100 for the full control effect; nearly all actives have a fitted effect of over 55% in size
- run-conditions: Gynecologic cancer cell panel viability, ATPlite luminescence, 48 h; series mostly up to 57.5 µM
Inconclusive results are not listed. Calls of active or inactive are those of the source. The call rests on the fitted dose curve; in most records, active means well fitted cell-killing curve with a large enough effect; inconclusive means small, poorly fitted or top-dose-only effect, or effect the other way; inactive means flat fitted curve, though single readings scatter.
observation-type: activity change, negative = cytotoxicity

INSERT INTO measurements (compound, experimental_result) VALUES
  ('CC(=O)O[C@@H]1C[C@]2(C)[C@@]3(CCC4[C@@]5(C)CC[C@H](O[C@@H]6O[C@H](C(=O)O)[C@@H](O)[C@H](O[C@@H]7O[C@H](CO)[C@H](O)[C@H](O)[C@H]7O[C@@H]7O[C@@H](C)[C@H](O)[C@@H](O)[C@H]7O[C@@H]7OC[C@](O)(CO)[C@H]7O)[C@H]6O[C@@H]6O[C@H](CO)[C@H](O)[C@H](O)[C@H]6O)C(C)(C)C5CC[C@]42C)O[C@@H](O)[C@]12C3CC(C)(C)[C@@H](OC(=O)/C=C/c1ccc(O)c(O)c1)[C@@H]2OC(=O)/C=C/c1ccccc1 (stereo not given in full)', '-3.99% [at 6.55 µM] (inactive)'),
  ('COc1cc(/C=C/C(=O)OC2[C@H](O)CC(O)(C(=O)O)C[C@H]2O)ccc1O (stereo not given in full)', 'inactive'),
  ('Cc1c(N2C(=O)c3ccc(C(=O)O)cc3C2=O)c(=O)n(-c2ccccc2)n1C', 'inactive'),
  ('COC(=O)[C@@]1(C)CC[C@]2(C(=O)O[C@@H]3O[C@H](CO)[C@@H](O)[C@H](O)[C@H]3O)CC[C@]3(C)C(=CCC4[C@@]5(C)CC[C@H](O[C@@H]6O[C@H](C(=O)O)[C@@H](O)[C@H](O)[C@H]6O)C(C)(C)C5CC[C@]43C)[C@@H]2C1 (stereo not given in full)', '-0.312% [at 11.6 µM] (inactive)'),
  ('C=C(C)C1CC2(CO)C(=CC1=O)CCC(O)C2C (stereo not given)', 'inactive'),
  ('CCC(C)(O)C(O)C(=O)OCc1ccc(O[C@@H]2O[C@H](CO)[C@@H](O)[C@H](O)[C@H]2O)c(OC)c1 (stereo not given in full)', 'inactive'),
  ('O=C(O[C@H]1[C@@H]2C=CO[C@@H](O[C@@H]3O[C@H](CO)[C@@H](O)[C@H](O)[C@H]3O)[C@@H]2[C@@]2(CO)O[C@@H]12)c1ccc(O)c(O)c1', 'inactive'),
  ('C=CC(C)(CC/C=C(\C)CC/C=C(\C)CC(O)/C=C(\C)C(=O)O)O[C@@H]1O[C@H](CO)[C@@H](O)[C@H](O)[C@H]1O[C@@H]1O[C@H](CO)[C@@H](O)[C@H](O)[C@H]1O (stereo not given in full)', 'inactive'),
  ('CC(O)(CC(=O)O)CC(=O)O[C@@H]1[C@@H](O)[C@H](OCCc2ccccc2)O[C@H](CO)[C@H]1O (stereo not given in full)', 'inactive'),
  ('C[C@@H]1O[C@@H](O[C@H]2[C@H](O[C@H]3CO[C@@H](O[C@H]4CC[C@@]5(C)C(CC[C@]6(C)C5CC[C@]57OC[C@@]8(CC[C@](C)(CO)CC85)[C@H](O)C[C@]76C)C4(C)C)[C@H](O[C@@H]4O[C@H](CO)[C@@H](O)[C@H](O)[C@H]4O)[C@H]3O)O[C@H](CO)[C@@H](O)[C@@H]2O)[C@H](O)[C@H](O)[C@H]1O (stereo not given in full)', '-8.3% [at 11.6 µM] (inactive)'),
  ('CC(=O)OC1C(O)CC(O[C@@H]2O[C@H](CO)[C@@H](O)[C@H](O)[C@H]2O)C2CCC3C(=O)OC(c4ccoc4)CC3(C)C21 (stereo not given in full)', 'inactive'),
  ('COc1cc([C@H]2OC[C@]3(OC(C)=O)[C@@H](c4ccc(O[C@@H]5O[C@H](CO)[C@@H](O)[C@H](O)[C@H]5O)c(OC)c4)OC[C@H]23)ccc1O', 'inactive'),
  ('CC1CC(O)CC(C)(C)C1(O)CCO (stereo not given)', 'inactive'),
  ('CC1CCCC2OC2C(=O)c2c(O)cc(O)cc2CC(=O)O1 (stereo not given)', 'inactive'),
  ('O=C(O)c1cc(O)c2cccc(O)c2c1O[C@@H]1O[C@H](CO)[C@@H](O)[C@H](O)[C@H]1O', 'inactive'),
  ('CC1(C)OC(=O)C(OCC2CC2)=C1c1ccc(S(C)(=O)=O)cc1', 'inactive'),
  ('C[C@@H](Nc1cc(NS(=O)(=O)N2CCC2)nc(SCc2cccc(F)c2F)n1)[C@@H](O)CO', 'inactive'),
  ('C/C=C/C=C/C=C/C(=O)O[C@@H]1[C@@H](OC)C2=C(C(=O)N(C(C)C(=O)O)C2)[C@@]2(C)CCCC(C)(C)[C@H]12 (stereo not given in full)', 'inactive'),
  ('CN1Cc2c(N)cccc2C(c2ccccc2)C1 (stereo not given)', 'inactive'),
  ('C=C(C)C(C)C1OC23CC4(CO2)C(CCC2C5(C)CCC(OC6OCC(O)C(OC7OC(CO)C(O)C(OC8OCC(O)C(O)C8O)C7O)C6OC6OC(CO)C(O)C6O)C(C)(C)C5CCC24C)C3C(C)(O)C1OC(C)=O (stereo not given)', '0.0055% [at 11.6 µM] (inactive)'),
  ('CC[C@H]1OC(=O)[C@H](C)[C@@H](OC2C[C@@](C)(OC)[C@@H](O)[C@H](C)O2)[C@H](C)[C@@H](OC2O[C@H](C)C[C@H](NC)[C@H]2O)[C@](C)(O)C[C@@H](C)CN(C)[C@H](C)[C@@H](O)[C@]1(C)O (stereo not given in full)', 'inactive'),
  ('COC(=O)C1(Cc2ccc(O)cc2)OC(=O)C(OC)=C1c1ccc(O)cc1 (stereo not given)', 'inactive'),
  ('C[C@@H]1CC[C@]2(C(=O)O)CC[C@]3(C)C(=CCC4[C@]5(C)C(CC[C@]43C)C(C)(C)[C@@H](O)[C@H](O)[C@@H]5O)C2[C@]1(C)O (stereo not given in full)', 'inactive'),
  ('O=c1ccn(C2OC(CO)C(O)C2O)c(=O)[nH]1 (stereo not given)', 'inactive'),
  ('CC1=CC(=O)CC(C)(C)C1(O)CCC(C)O (stereo not given)', 'inactive');
